Test system: K-562 leukemia
ASSAY: NCI-60 one-dose screen, 48 h
CONDITION_LABEL: 10 µM unless noted
Compounds without any hit were thinned out: in the full panel of roughly 83,000, 20% have a hit. Activity calls are given as the source filed them. The calls were made as follows: active = growth percent below 10; inactive = the rest.
Select the correct class. Options are TRUE = active, FALSE = inactive and nothing else.

stdin: Recorded test call requested for COc1cc(/C=N/NC(=O)c2cnn3c2NC(c2ccccc2)C3)ccc1OC1CCCC1 (configuration not stated)
stdout: FALSE

stdin: Recorded test call requested for Oc1ccc2ccccc2c1C1NN=C(c2ccccc2)S1 (configuration not stated)
stdout: FALSE

stdin: Recorded test call requested for Cc1nc2cc(Nc3nc(NCCO)nc(Nc4ccc(F)cc4)n3)ccc2n1Cc1ccccc1
stdout: FALSE

stdin: Recorded test call requested for COc1ccc(/C=N\N2CCOCC2)cc1OC1CCCC1
stdout: FALSE

stdin: Recorded test call requested for Cc1cc(NS(=O)(=O)c2ccc(NC(=O)COc3ccc(-c4cc5ccccc5[nH]4)cc3)cc2)no1
stdout: TRUE

stdin: Recorded test call requested for Cc1nc2cc(Nc3nc(Cl)nc(Nc4ccc(F)cc4)n3)ccc2n1Cc1ccccc1
stdout: FALSE

stdin: Recorded test call requested for O=C(COc1cccc(/C=C2\COc3ccccc3C2=O)c1)c1ccccc1
stdout: FALSE

stdin: Recorded test call requested for O=C1C(Cl)=C(NCCCN2CCOCC2)C(=O)c2ccccc21
stdout: FALSE

stdin: Recorded test call requested for Cc1nc2cc(Nc3nc(Nc4ccc(F)cc4)nc(-c4ccc(Cl)cc4)n3)ccc2n1Cc1ccccc1
stdout: FALSE

stdin: Recorded test call requested for COc1ccc(OC2=CC(=O)c3ccc(C)nc3C2=O)cc1
stdout: FALSE

stdin: Recorded test call requested for O=C(NCc1cccnc1)c1ccc([N+](=O)[O-])o1
stdout: FALSE

stdin: Recorded test call requested for CCCOC(=O)c1ccc2c(c1)[N+](=O)C(C(=O)c1ccccc1)=C(C(F)(F)F)[N+]2=O
stdout: TRUE

stdin: Recorded test call requested for COc1cccc(Nc2nc(NCCO)c3ccccc3n2)c1
stdout: FALSE

stdin: Recorded test call requested for Cc1ccc(S(=O)(=O)N2CCc3ccc(O)c4c3C2Cc2cc(Cl)ccc2-4)cc1 (configuration not stated)
stdout: FALSE

stdin: Recorded test call requested for Cc1cc(=O)oc2c1ccc1oc(C(=O)c3ccccc3)c(C)c12
stdout: FALSE

stdin: Recorded test call requested for COc1cccc(C2C3=C(COC3=O)N(CCO)c3cc4c(cc32)OCO4)c1 (configuration not stated)
stdout: FALSE

stdin: Recorded test call requested for COc1cc(/C=C/C(=O)C(=Cc2ccc(F)c(F)c2)C(=O)/C=C/c2ccc(O)c(OC)c2)ccc1O
stdout: FALSE

stdin: Recorded test call requested for COc1ccc(-c2c3c(N)c4c(nc3nc3c2c(C)nn3-c2ccccc2)CCCC4)cc1
stdout: FALSE

stdin: Recorded test call requested for CC[Si](CC)(CC)OC1[C@@H](O[Si](CC)(CC)CC)[C@@H](CNC(=O)NC)O[C@H]1n1cnc2c(NC(=O)Nc3ccccc3)ncnc21 (some centres not stated)
stdout: FALSE

stdin: Recorded test call requested for COc1cc(CNCCN2C(=O)c3ccc4c5c(ccc(c35)C2=O)C(=O)N(CCNCc2cc(OC)c(OC)c(OC)c2)C4=O)cc(OC)c1OC
stdout: TRUE

stdin: Recorded test call requested for Cc1ccc(C2SCC(=O)N2NC(=O)c2[nH]c3ccc(F)cc3c2-c2ccccc2)cc1 (configuration not stated)
stdout: FALSE

stdin: Recorded test call requested for CN1CCN(c2ccc3nc(-c4ccc5nc(-c6ccc(C(F)(F)F)cc6)[nH]c5c4)[nH]c3c2)CC1
stdout: TRUE

stdin: Recorded test call requested for CC(C)OC1=C(Cl)C(=O)c2ccccc2C1=O
stdout: FALSE

stdin: Recorded test call requested for O=C1CN2CCC1C/C2=C\c1ccnc2c(Cl)cccc12 (configuration not stated)
stdout: FALSE

stdin: Recorded test call requested for CNc1ccc(Br)cc1-c1n[nH]c(=O)[nH]c1=O
stdout: FALSE

stdin: Recorded test call requested for NC1=NC(c2ccccc2OS(=O)(=O)c2ccc(Br)cc2)n2c(nc3ccccc32)N1 (configuration not stated)
stdout: FALSE

stdin: Recorded test call requested for COc1ccc(-c2nc3sc(C)nn3c2-c2nc3cc(C)c(C)cc3[nH]2)cc1
stdout: FALSE

stdin: Recorded test call requested for Brc1ccc(SCN(CSc2ccc(Br)cc2)Cc2ccccc2)cc1
stdout: FALSE

stdin: Recorded test call requested for FC(F)(F)c1ccc2c(c1)n1cnnc1c1nncn21
stdout: FALSE

stdin: Recorded test call requested for CN1CCc2c(c3ccccc3c3ccccc23)C1
stdout: FALSE

stdin: Recorded test call requested for CC1SC(c2ccc(Cl)cc2)N(CCc2cccs2)C1=O (configuration not stated)
stdout: TRUE

stdin: Recorded test call requested for Cc1nc(NN)c([N+](=O)[O-])c(NN)n1
stdout: FALSE

stdin: Recorded test call requested for COc1cc(C(=O)/C=C/c2c(-c3cccs3)nc3sccn23)cc(OC)c1OC
stdout: FALSE

stdin: Recorded test call requested for CC(C)NCC(O)COc1ccc(CCOCC2CC2)cc1 (configuration not stated)
stdout: FALSE

stdin: Recorded test call requested for NC(=O)c1cc(I)ccc1NC(=O)COc1ccc(Cl)cc1Cl
stdout: FALSE

stdin: Recorded test call requested for Cc1nc2cc(Nc3nc(NCCN)nc(Nc4ccc(F)cc4)n3)ccc2n1Cc1ccccc1
stdout: TRUE

stdin: Recorded test call requested for Cc1ccc(C(=O)Nc2ccccc2N)cc1
stdout: FALSE

stdin: Recorded test call requested for CCCN1CCN(c2ccc3nc(-c4ccc5nc(-c6ccc(C(F)(F)F)cc6)[nH]c5c4)[nH]c3c2)CC1
stdout: TRUE

stdin: Recorded test call requested for COc1ncnc2c1ncn2C/C(Br)=C(\Br)CCl
stdout: TRUE

stdin: Recorded test call requested for COc1cccc(OC(=O)c2ccccc2)c1OC(=O)c1ccccc1
stdout: FALSE

stdin: Recorded test call requested for Cc1oc2c(c1C(=O)N1CC[C@@H](N)C1)C(=O)c1c(c(O)c3ccccc3c1O)C2=O
stdout: TRUE

stdin: Recorded test call requested for O=C1c2c(c3c4cc(Br)ccc4[nH]c3c3ccc4ccccc4c23)C(=O)N1O
stdout: FALSE

###

System: NCI-H460 lung
ASSAY: NCI-60 one-dose screen, 48 h (100 = growth as untreated, 0 = no growth, -100 = all killed)
CONDITION_LABEL: 10 µM unless noted
Compounds without any hit were thinned out: in the full panel of roughly 83,000, 20% have a hit. Activity calls are given as the source filed them. The calls were made as follows: active = growth percent below 10; inactive = the rest.
REPORTED_METRIC: growth

stdin: Query: growth; subject: Cc1nc2ccc(Cl)cc2n1C
stdout: 109% (inactive)

stdin: Query: growth; subject: Cn1c2ccccc2c2nn(C(=O)c3ccccc3)c(=O)nc21
stdout: 105% (inactive)

stdin: Query: growth; subject: COc1cc(C(F)(F)F)ccc1-c1cc(-c2ccc(F)cc2)n[nH]1
stdout: 91.6% (inactive)

stdin: Query: growth; subject: CCN(c1ccc(C(=O)N2CCN(c3ccccc3)CC2)cc1)S(C)(=O)=O
stdout: 108% (inactive)

stdin: Query: growth; subject: CC(=O)c1cc(C)c(OC(=O)c2ccccc2)c(C)c1
stdout: 106% (inactive)

stdin: Query: growth; subject: O=c1oc2ccccc2cc1-c1csc(N/N=C/c2cc3ccccc3nc2Cl)n1
stdout: 99.7% (inactive)

stdin: Query: growth; subject: Cc1ccc(C2SCC(=O)N2NC(=O)c2[nH]c3ccc(F)cc3c2-c2ccccc2)cc1 (centres undefined)
stdout: 92.2% (inactive)

stdin: Query: growth; subject: CON=C1C[C@]2(C[C@@H]3C[C@@H](C/C=C(\C)C[C@@H](C)/C=C/C=C4\CO[C@@H]5[C@H](O)C(C)=C[C@@H](C(=O)O3)[C@]45O)O2)O[C@H](/C(C)=C/C(C)C)[C@H]1C
stdout: 39.3% (inactive)

stdin: Query: growth; subject: CCC(C)Oc1cc(/C=N/NC(=O)c2cnn3c2NC(c2ccccc2)C3)ccc1OC (centres undefined)
stdout: 11.5% (inactive)

###

Assignment: determine reported growth for the given compounds.
Test system: SR leukemia
ASSAY: NCI-60 one-dose screen, 48 h (100 = growth as untreated, 0 = no growth, -100 = all killed)
CONDITION_LABEL: 10 µM unless noted
Compounds without any hit were thinned out: in the full panel of roughly 83,000, 20% have a hit.
Give the value in % but do not write % after it.

stdin: Query: growth; subject: CSc1ccc(OC(C)=O)cc1C
stdout: 95.7

stdin: Query: growth; subject: c1ccc(-c2n(Cc3ccc4ccccc4c3)c3ccccc3[n+]2Cc2ccc3ccccc3c2)cc1
stdout: -23.6

stdin: Query: growth; subject: COc1ccc(/C=N/NC(=O)c2cnn3c2NC(c2ccccc2)C3)cc1OC1CCCC1 (stereo not given)
stdout: 47.2

stdin: Query: growth; subject: COc1cc(C2C3=C(COC3=O)N(CCO)c3cc4c(cc32)OCO4)cc(OC)c1O (stereo not given)
stdout: 21.5

stdin: Query: growth; subject: O=C1N/C(=C\c2ccccc2)c2ncccc21
stdout: 76.4

stdin: Query: growth; subject: COc1ccc(C(=O)C2=CC(=O)C(=O)C2)cc1OC
stdout: 94.3

stdin: Query: growth; subject: O=c1c2c(=NCCN3CCCC3)cc3c(=O)n(CCCN4CCOCC4)c(=O)c4ccc(c(O)n1CCCN1CCOCC1)c2c4-3
stdout: 13.5

stdin: Query: growth; subject: CCCCCCCCCCCCCCn1c2ccccc2c2c3c(c4c5cc(OC)ccc5oc4c21)C(=O)NC3=O
stdout: 114

stdin: Query: growth; subject: Nc1c(Br)cc(Br)cc1-c1n[nH]c(=O)[nH]c1=O
stdout: 7.84

stdin: Query: growth; subject: C=CC(=O)N1CC2(CCC(n3nc(-c4ccc(Oc5ccccc5)cc4)c4c(N)ncnc43)CC2)C1
stdout: -23.2
